Every entry's value here was drawn from patent US20260258115A1.

# TESTED TARGET: RSV postfusion F (postF), F deltaFP (Respiratory Syncytial Virus)
# ASSAY DETAILS: BLI, IgG on anti-human IgG sensor, 100 nM antigen
MEASURED ENDPOINT: log10 Kd (log10 of the value in nM)
Answers are given as log10 of Kd in nM.

ADI-41190 (antibody, V domains shown) VH: QVQLVQSGAEVKKPGASVKVSCKAFGYTFRSYDMQWVRQAPGQRLEWMGWINAVNGDTKYSQKFQGRVTITRDTSATTVYMELSSLRSEDTAVYYCARWGRFWNSRSLDYYAMDVWGQGTTVTVSS VL: DIVMTQSPGTLSLSPGERATLSCRASQSISSSYLVWYQHKPGQAPRLLIYGASTRATDIPDRFSGSGSGTDFTLTISRLEPEDFAVYYCQQYGSSPLTFGQGTRLEIK: -0.01
ADI-41179 (antibody, V domains shown) VH: QVQLVQSGAEVKKPGSSVKISCKASGGTFSSHPISWVRQAPGQGLEWMGRIVPIFGIANYAQKFQGRVTMIADKSTNTAYMELSNLRSEDTAVYYCANPVYDSSGFQWGQGTLVTVSS VL: QPVLTQPRSVSGSPGQSVTISCTGTSGDGGFYNYVSWYQQHPGKTPKLMIYDVDQRPSGVPDRFSGSKSGNTASLTISGLQAEDEADYYCCSYPGNPLYVFGTGTKVTVL: -0.47
ADI-41170 (antibody, V domains shown) VH: EVQLLESGGGLIQPGGSLRLSCAASGFTFNNYVMSWVRQAPGKGLEWVAAISSSGVSTYYAASVKGRFTISRDNSKNMLYVQLNSLRAEDTAVYYCAKETGSYYYFDSWGQGTLVTVSS VL: ETTLTQSPSTLSGSVGDRVTITCRASESISSWLAWYQQKPGKAPKLLIYKASNLESGVPSRFSGSGSGTEFTLTISSLQPDDFATYYCQQYNSYLITFGQGTRLEIK: 0.42
ADI-41171 (antibody, V domains shown) VH: EVQLVESGPGLVKPSQTLSLTCTVSGGSISSGGDYWSWVRQRPGKGLEWIGYIYNSGSGYYNPSLKNRVSMSMHTSRNQFSLRLSSVTAADTAFYYCARDPFYRSGGIHYFDYWGQGALVTVSS VL: DIVLTQTPGTLSLSPGEGATLSCRASPSVGSTSLAWYQQKPGQAPRLLIYGASSRATGIPDRFSGSGSGTDFTLTISRLEPEDFAVYYCQQDGGLPITFGLGTRLEIK: 0.63

For the next question, use this binder.
Data request: log10 Kd for ADI-41161 (antibody, V domains shown) VH: EVQLVESGGGLVQPGGSLRLSCAASGFTFSTFEFNWVRQAPGKGLEWLSYISSDDTTRYYADSVKGRFTISRDNAKNSLYLQMNSLRAEDTAYYYCVRGGPYDYVWGTYRYFDFWGQGTLVTVSS VL: QSVLTQPASVSGSPGQSITISCTGTSSDIGGYNYVSWYQQHPGKAPKLMIYDVTNRPLGVSNRFSGSKSGNTASLIISGLQAEDEAEYYCCSYTSSNSLVFGGGTKLTVL ?
Data returned: -0.44
